Recorded values, source the Immune Epitope Database (IEDB).

Target: HLA-B*53:01
Assay: IEDB peptide-MHC binding, purified MHC/competitive/radioactivity; bounds were set here for any values at or beyond the usual limits of such assays
Settings: source organism: Bordetella pertussis
observable: pIC50
Here pIC50 is given on a logarithmic scale as minus log10 of the concentration in mol/L.

# return pIC50 of YIWGLYPTY (system: HLA-B*53:01)
4.32

====

Target: HLA-B*07:02
Assay: IEDB peptide-MHC binding, purified MHC/competitive/radioactivity; bounds were set here for any values at or beyond the usual limits of such assays
Conditions: source organism: Bordetella pertussis
observable: IC50
Your answer should be a number followed by the unit of measure.

Tell me measured IC50 for LPKPVTVKL please.
2660 nM

====

Catalogue of pIC50 values
Molecular target: HLA-B*44:03
Assay: IEDB peptide-MHC binding, purified MHC/competitive/radioactivity; bounds were set here for any values at or beyond the usual limits of such assays
Details: source organism: Bordetella pertussis
Here pIC50 is given on a logarithmic scale as minus log10 of the concentration in mol/L.

Here's what some known entries look like.
INSERT INTO results (residues, systemtested, observable, recordedvalue) VALUES
  ('AEKVTTPAV', 'HLA-B*44:03', 'pIC50', 4.41),
  ('LEAGRRFTH', 'HLA-B*44:03', 'pIC50', 4.35),
  ('AMQGAVVHL', 'HLA-B*44:03', 'pIC50', 4.43);

// switching to the query sequence
# return pIC50 of AELQTYLRQ (system: HLA-B*44:03)
5.74

====

Target: HLA-A*02:01
Experiment: IEDB peptide-MHC binding, purified MHC/competitive/radioactivity; bounds were set here for any values at or beyond the usual limits of such assays
Conditions: source organism: Bordetella pertussis
observable: pIC50
Here pIC50 is given on a logarithmic scale as minus log10 of the concentration in mol/L.

Tell me measured pIC50 for SLADISLGA please.
7.04

====

Molecular target: HLA-A*02:01
Experiment: IEDB peptide-MHC binding, purified MHC/competitive/radioactivity; bounds were set here for any values at or beyond the usual limits of such assays
Conditions: source organism: Bordetella pertussis
observable: IC50 (nM)
Unit nM implied. Number only.

Here's what some known entries look like.
INSERT INTO assay_data (residues, systemtested, observable, recordedvalue) VALUES
  ('AMTHLSPAL', 'HLA-A*02:01', 'IC50', 162),
  ('AMQGAVVHL', 'HLA-A*02:01', 'IC50', 2650),
  ('LMGPLQVNA', 'HLA-A*02:01', 'IC50', 629);

// switching to the query sequence
# return IC50 of ALILAASPV (system: HLA-A*02:01)
26300
